# test_target: Substance-K receptor (Homo sapiens, UniProt P21452)
# Sequence (P21452 whole entry): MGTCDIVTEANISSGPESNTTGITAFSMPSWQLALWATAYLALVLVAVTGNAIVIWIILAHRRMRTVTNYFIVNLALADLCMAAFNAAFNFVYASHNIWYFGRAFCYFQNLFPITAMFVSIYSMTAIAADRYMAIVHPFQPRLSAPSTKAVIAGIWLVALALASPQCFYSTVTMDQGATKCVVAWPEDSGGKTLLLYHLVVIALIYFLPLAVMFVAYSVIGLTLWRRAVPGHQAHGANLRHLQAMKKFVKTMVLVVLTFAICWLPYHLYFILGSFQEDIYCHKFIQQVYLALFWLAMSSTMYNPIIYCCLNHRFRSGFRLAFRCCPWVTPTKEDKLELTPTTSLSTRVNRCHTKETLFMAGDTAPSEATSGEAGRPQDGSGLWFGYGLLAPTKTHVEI
# measurement_notes: Displacement of [125I]neurokinin A from human NK2 receptor expressed in CHOK1 cells
# Assay type: cell-based, CHO-K1
Assignment: determine reported Ki for the given molecules.

{"columns": ["molecule", "result"],
 "data": [
  ["O=C1C[C@@H](NC2CC[S+]([O-])CC2)C(=O)NC[C@@H](Cc2ccccc2)NC(=O)[C@H](Cc2ccccc2)NC(=O)[C@H](Cc2c[nH]c3ccccc23)N1 (stereo partly drawn)", "0.0251 nM (antagonist)"],
  ["CS(=O)(=O)N1CCN([C@@H]2CC(=O)N[C@@H](Cc3c[nH]c4ccccc34)C(=O)N[C@@H](Cc3ccccc3)C(=O)N[C@H](Cc3ccccc3)CNC2=O)CC1", "3.16 nM (antagonist)"],
  ["O=C1C[C@@H](NC[C@H](O)[C@@H](O)[C@@H](O[C@H]2O[C@H](CO)[C@@H](O)[C@H](O)[C@H]2O)[C@H](O)CO)C(=O)NC[C@@H](Cc2ccccc2)NC(=O)[C@H](Cc2ccccc2)NC(=O)[C@H](Cc2c[nH]c3ccccc23)N1", "0.631 nM (antagonist)"]
]}

Please state, for each entry, its recorded Ki.
1. NC1CCN([C@@H]2CC(=O)N[C@@H](Cc3c[nH]c4ccccc34)C(=O)N[C@@H](Cc3ccccc3)C(=O)N[C@H](Cc3ccccc3)CNC2=O)CC1
2. O=C1C[C@@H](NC2CCOCC2)C(=O)NC[C@@H](Cc2ccccc2)NC(=O)[C@H](Cc2ccccc2)NC(=O)[C@H](Cc2c[nH]c3ccccc23)N1
3. NC(=O)C1CCN(CC(=O)N[C@@H]2CC(=O)N[C@@H](Cc3c[nH]c4ccccc34)C(=O)N[C@@H](Cc3ccccc3)C(=O)N[C@H](Cc3ccccc3)CNC2=O)CC1
4. NS(=O)(=O)N1CCN(CC(=O)N[C@@H]2CC(=O)N[C@@H](Cc3c[nH]c4ccccc34)C(=O)N[C@@H](Cc3ccccc3)C(=O)N[C@H](Cc3ccccc3)CNC2=O)CC1
5. N[C@@H]1CC(=O)N[C@@H](Cc2c[nH]c3ccccc23)C(=O)N[C@@H](Cc2ccccc2)C(=O)N[C@H](Cc2ccccc2)CNC1=O

1: 5.01 nM (antagonist); 2: 0.0631 nM (antagonist); 3: 0.501 nM (antagonist); 4: 0.1 nM (antagonist); 5: 2 nM (antagonist)

Reference source: ChEMBL document CHEMBL1149315
